system: HL-60(TB) leukemia; assay: NCI tumour cell line growth inhibition, 48 h
measured.metric: TGI

Illustrative cases are given below, each with its answer.
smiles.entry	measured.metric	value.reported
O=C(NC1CCCCC1)OCc1c(COC(=O)NC2CCCCC2)c(-c2ccc(Cl)c(Cl)c2)n2c1CCC2	TGI	> 100 µM
CC(C)C[C@@H](NC(=O)[C@@H](Cc1cccc2ccccc12)NC(=O)N1CCOCC1)B(O)O	TGI	> 100 µM

Could you now look at the following compound, please?
Task: What value of TGI has been reported for the following compound? `CCN(Cc1ccccn1)c1ccc(CO)c(Cl)c1`
Output: > 100 µM

----------
test system: DU-145 prostate; test: NCI tumour cell line growth inhibition, 48 h
Where a SMILES comes first, the peptide text is derived from it. [ ]: non-standard residue; d: D form. The star is where a group is joined. ξ: configuration not given here. ξD = NC(CC(=O)O)C(=O)O; Boc = CC(C)(C)OC(=O)*; Aib = CC(C)(N)C(=O)O; OtBu = CC(C)(C)O*
Listed below: TGI values for each entry.

Worked cases, TGI given:
compound	measured.metric	value.reported
COc1ccc(Cc2c(-c3ccc(C)cc3)n[nH]c(=O)c2C2C(=O)N(c3ccccc3)N=C2c2ccccc2)cc1 (stereo unspecified)	TGI	> 100 µM
NC(=O)c1c(Br)n(C2OC(CO)C(O)C2O)c2ncnc(N)c12 (stereo unspecified)	TGI	8.86 µM
O=C1OCC(C#Cc2ccccc2)=C1Br	TGI	13.2 µM
O=C(O)C(F)(F)C(F)(F)C(F)(F)C(F)(F)C(F)(F)C(F)(F)C(F)(F)C(F)(F)F	TGI	> 100 µM
COC(=O)C(C)(C)NC(=O)C(C)(C)NC(=O)C(CC(=O)OC(C)(C)C)NC(=O)OC(C)(C)C (stereo unspecified) (Boc-[ξD](OtBu)-[Aib]-[Aib]-OMe)	TGI	> 100 µM

Task: For the compound Cc1ccc(C2C3Cc4ccccc4C3=NN2c2ccc(S(=O)(=O)NC(=O)NC3CCCCC3)cc2)cc1 (stereo unspecified) , what TGI is on record?
Output: 78.9 µM

Task: I am curious: what TGI value has been reported for `C=C(C)c1nc(C#N)c(N)o1` ?
Output: > 100 µM

Task: Given the compound `CC(=O)OCCn1c(Cc2ccc(C)cc2)nn(C(C)=O)c1=O` , what is its reported TGI?
Output: > 100 µM

Task: // TGI lookup, key: `Cn1c(=O)c2[nH]c(CSCc3ccccc3)nc2n(C)c1=O`
Output: > 100 µM

Task: Please look up its TGI: COc1cc(COC(=O)N2CSCC2C(=O)O)c([N+](=O)[O-])cc1OC (stereo unspecified)
Output: > 100 µM

Task: Find the recorded TGI belonging to `COc1ccc([C@H]2CC(=O)C[C@H](c3ccc(OC)cc3OC)C23C(=O)c2ccccc2C3=O)c(OC)c1` and report it.
Output: > 100 µM

----------
tested on: NCI-H23 lung; assay: NCI tumour cell line growth inhibition, 48 h
Recorded GI50 for the following molecules

Field: example entries. Status: answers known.
molecule	assayed.target	GI50
Cc1ccc2cc3c(cc(C)c4ccccc43)c3c2c1CC3	NCI-H23 lung	> 100 µM
COC(=O)C1=C(C(=O)OC)SC(=C(Cl)C(=S)Oc2ccccc2N)S1	NCI-H23 lung	10.6 µM
N#C/C(=C1C=C/C(=N/O)C(Cl)=C/1)c1ccc(Cl)cc1	NCI-H23 lung	25.9 µM

With those in mind, consider the next molecule.
Task: For the molecule shown here, CCOC(=O)CCC(NC(=O)c1ccc(Sc2nc3cc(N)cc(N)c3nc2-c2ccccc2)cc1)C(=O)OCC (centres undefined) , give the reported GI50.
Output: 2.29 µM

----------
test system: RPMI-8226 leukemia; test: NCI tumour cell line growth inhibition, 48 h
Below is a list of entries, each paired with its recorded TGI value.

The following compounds have reported results that may help.
compound	TGI
CC1(C)[C@@H]2CC[C@@]1(C)C1(SS1=O)C21Cc2ccccc2C1 (stereo partly drawn)	50.5 µM
Nc1ccc(C(=O)N/C(=C\C=C\c2ccco2)c2nc3c4c(ccc3[nH]2)C(=O)c2ccccc2C4=O)cc1	> 100 µM

# context switch: different compound, same TGI
Task: I have this compound here, `CC1(C)Cc2c(c3ccccc3c3nc4c(nc23)c2c(c3ccccc34)OC(C)(C)C2)O1` , and I need its recorded TGI.
Output: > 100 µM

----------
In this section, each of the compounds is paired with its reported TGI.
system: BT-549 breast; assay: NCI tumour cell line growth inhibition, 48 h
Provide only the numeric value, understood in µM.

smiles.entry	result.units	TGI
S=c1ssnc1-c1ccccn1	µM	28.7

Task: For the compound shown here, `C[C@]12CC[C@H]3[C@@H](CCC4=C[C@@H](N5CCCC5)CC[C@@]43C)[C@@H]1C/C(=C\c1ccncc1)[C@@H]2O` , give the reported TGI.
Output: 38.9

Task: What does the record list as TGI for `COc1ccc(/C=C/c2cc(OC)c(OC)c(OC)c2)cc1O[Si](C)(C)C(C)(C)C` ?
Output: 64

Task: Value lookup for TGI; key = `CC(=O)Nc1c(Br)cc2c(c1Br)Cc1cc(Br)ccc1-2`
Output: 13.4

----------
test system: SW-620 colon; test: NCI tumour cell line growth inhibition, 48 h; in the data active means GI50 below about 0.43 µM; inactive means the rest
Bench note: report the call from YES = active, NO = inactive

compound	category
Cc1ccc2cc3c(cc(C)c4ccccc43)c3c2c1CC3	NO
CC(C)N(Cc1c(F)cccc1F)c1ccc(CO)c(Cl)c1	YES
COc1ccc(C2=C(c3cn(C)c4ccccc34)C(=O)OC2)cc1OC	NO

Task: What is the recorded call for this compound in the test? N#Cc1cnc(=O)n(C2CC(O)C(CO)O2)c1 (centres undefined)
Output: NO

----------
system: SF-295 CNS; experiment: NCI tumour cell line growth inhibition, 48 h
Entries annotated with measured TGI

compound	assayed.target	value.reported
CC1(c2ccccc2)CCN(C2CC2)CO1 (centres undefined)	SF-295 CNS	> 100 µM

Task: Give recorded TGI with SF-295 CNS for the following compound: O=C(O)C1CCC(=O)N1C(=O)C(Cl)c1ccccc1 (centres undefined)
Output: > 100 µM

Task: So what TGI did Nc1nc2ccc(NCc3ccc(C(=O)NC(CCC(=O)O)C(=O)O)cc3)cc2c(=O)[nH]1 (centres undefined) get with SF-295 CNS?
Output: > 100 µM

Task: // map `COc1cc2nc3c(=C(C#N)C#N)c4ccccc4n3c(=O)c2cc1OC` to recorded TGI (system: SF-295 CNS)
Output: > 100 µM

----------
Measured TGI accompanies every entry in the list below.
system: NCI-H23 lung; experiment: NCI tumour cell line growth inhibition, 48 h

compound	TGI
Cc1ccc(S(=O)(=O)N(/N=C/C=C/c2ccccc2)c2nnc(-c3ccccc3)c(-c3ccccc3)n2)cc1	66.8 µM
O=C1C(Br)=C(C2=CC(=P(c3ccccc3)(c3ccccc3)c3ccccc3)C=C2)C(=O)C(Br)=C1C1=CC(=P(c2ccccc2)(c2ccccc2)c2ccccc2)C=C1	> 100 µM
CCCCCC(/C=C/[C@@H]1[C@H]2CC(=O)O[C@H]2C[C@H]1N1CCOCC1)OC1CCCO1 (some centres not stated)	> 100 µM
COc1cc(O)cc2oc(-c3ccc(O)cc3)cc(=O)c12	> 100 µM
O=C1CCCC/C1=C(\Br)I	16.8 µM

Task: Recorded TGI of `CC(=O)/C(=C/n1ccc(=O)[nH]c1=S)C(=O)Nc1ccccc1C` , please.
Output: > 100 µM

Task: Query: TGI; subject: `C[C@]12CC[C@H]3[C@@H](CCC4=C[C@@H](N5CCCC5)CC[C@@]43C)[C@@H]1C/C(=C\c1ccncc1)[C@@H]2O`
Output: 34.2 µM

Task: What value of TGI has been recorded for this entry: `Nc1ccc(C(=O)N/C(=C\C=C\c2ccco2)c2nc3c4c(ccc3[nH]2)C(=O)c2ccccc2C4=O)cc1`
Output: > 100 µM

Task: Data request, read-out TGI, for COC(=O)[C@]1(c2cc3ccccc3[nH]2)CC2CN(C(=O)OCc3ccccc3)C1C=C2OC (some centres not stated)
Output: > 100 µM

Task: Given CC(=O)OC(C[C@H](C)[C@@H]1CC[C@]2(C)C3=CCC4C(C)(C)C(=O)CC[C@]4(C)C3CCC12C)C1OC1(C)C (some centres not stated) , state its recorded TGI.
Output: 86.4 µM

Task: Data request, read-out TGI, for `CCN(Cc1ccccn1)c1ccc(CO)c(Cl)c1`
Output: > 100 µM

Task: What measured TGI goes with `COP(=O)(OC)/C(=C/c1cn(C(C)=O)c2ccccc12)NC(C)=O` ?
Output: > 100 µM

----------
List of GI50 values.
tested on: UACC-257 melanoma; assay: NCI tumour cell line growth inhibition, 48 h

compound	GI50
CC(=O)Nc1c(Br)cc2c(c1Br)Cc1cc(Br)ccc1-2	19.3 µM

Task: What does the data say about its GI50? Entry: `COC(=O)[C@@]1(C)CCC[C@]2(C)[C@H]3Cc4occc4[C@H](C)[C@@H]3CC[C@@]12O`
Output: 35.6 µM

Task: Need GI50 of NC(=O)c1c(Br)n(C2OC(CO)C(O)C2O)c2ncnc(N)c12 (centres undefined) , thanks.
Output: 2.99 µM

Task: // query GI50 value for entry `S=c1ssnc1-c1ccccn1`
Output: 3.1 µM
